# Tested on: MALME-3M melanoma
# assay.method.text: NCI-60 one-dose screen, 48 h (100 = growth as untreated, 0 = no growth, -100 = all killed)
# cond: 10 µM unless noted
The panel holds about 83,000 compounds, 20% with a hit somewhere; the sample as a whole holds those more often.
Rule: growth under 40% gives Not met, otherwise Met.

CCN(CC)CCCC(C)N/C(c1cccc(OC)c1)=c1\c(=O)[nH]n(-c2c3ccccc3nc3ccccc23)c(=O)\c1=C(/NC(C)CCCN(CC)CC)c1cccc(OC)c1 (centres undefined) : Not met
NS(=O)(=O)c1ccc(N2N=C(c3cccs3)CC2c2ccccc2O)cc1 (centres undefined) : Met
CC[C@H](Nc1nc(N)nc(N)c1Cl)c1nc2cccc(NCc3ccc(C(=O)NO)cc3)c2c(=O)n1-c1ccccc1 : Not met

Check the entry CNC(=O)c1ccccc1Sc1ccc2c(/C=C/c3ccccn3)n[nH]c2c1 : does growth equal or exceed 40%?
Not met

Check the entry CCOC(=O)c1ccc(NCCC(=O)O)cc1 : does growth equal or exceed 40%?
Met

Check the entry Nc1nc2ccc([C@@H]3Nc4ccc5[nH]ncc5c4[C@H]4[C@H]5CCC(C5)[C@H]43)cc2s1 : does growth equal or exceed 40%?
Not met

* * *

# Tested on: MOLT-4 leukemia
# assay.method.text: NCI-60 one-dose screen, 48 h
# cond: 10 µM unless noted
The panel holds about 83,000 compounds, 20% with a hit somewhere; the sample as a whole holds those more often. Calls of active or inactive are those of the source. How the source made its calls: active means growth percent below 10; inactive means the rest.
Can you answer with just one of these options? active, inactive

Some solved entries appear below for comparison.
COc1ccc2cc(-c3nc(C)c(C(C)=O)c(-c4ccc(C)cc4)n3)ccc2c1 : inactive
O=C(/C=C/c1cc([N+](=O)[O-])ccc1Cl)c1ccccc1 : inactive
COc1ccc2[nH]c(O)c(/C=c3/ccc4c(c3)N=C(c3ccc(C(F)(F)F)cc3)N=4)c2c1 : inactive
CNCc1cccc2c1OCCOCCOCCC(C)S(=O)(=O)c1ccc(cc1)-c1cnc(N)c(n1)C(=O)N2 (stereo unspecified) : inactive
C/C(=N\OC(=O)Nc1cccc(Cl)c1)c1ccccc1 : inactive

Could you check what this test reported for Cc1ccccc1N1C(c2ccccc2)=NNC12C=CC(=O)c1c(O)cccc12 (stereo unspecified) ?
inactive

Could you check what this test reported for Cc1ccc(C2CC(c3cccs3)=NN2c2ccc(S(N)(=O)=O)cc2)s1 (stereo unspecified) ?
inactive

Could you check what this test reported for Cc1nc2ccc(Nc3nc(NCCN4CCOCC4)nc(Nc4ccc(F)cc4)n3)cc2n1Cc1ccccc1 ?
inactive

Could you check what this test reported for C/C(=N\OC(=O)Nc1ccccc1)c1ccccc1 ?
inactive

Could you check what this test reported for FC1(F)CCN(Cc2c[nH]c3cc(Cl)ccc23)C[C@H]1CCc1ccccc1 ?
inactive

* * *

# Tested on: LOX IMVI melanoma
# assay.method.text: NCI-60 one-dose screen, 48 h
# cond: 10 µM unless noted
About 83,000 compounds went through this panel and 20% of them were active in at least one assay; those are over-represented in the sample as a whole. Activity calls are given as the source filed them. The calls were made as follows: active = growth percent below 10; inactive = the rest.
Can you answer with just one of these options? 1.0 = active, 0.0 = inactive

Cc1cc(C)c2c(NC(=O)Nc3ccc(Cl)c(Cl)c3)n[nH]c2n1 : 0.0
[Ag].[Ag].[NH-]S(=O)(=O)c1ccc(N=Nc2cc(N=Nc3ccc(S([NH-])(=O)=O)cc3)c3c(NC(=O)C(Cl)Cl)cccc3c2OC(=O)C(Cl)Cl)cc1.[c-]1nccs1.[c-]1nccs1 : 0.0
Nc1cc2nc3ccccc3oc-2cc1=O : 1.0
CC1CCN(Cc2ccc(NC(=O)c3cc4ccc5cccnc5c4[nH]3)cc2)CC1 : 1.0
CC(C)OC(=O)c1ccc([N+](=O)[O-])cc1 : 0.0

In the following, a different compound is considered.
Could you check what this test reported for O=C1c2ccccc2C(=O)c2c1oc1ccc3ccccc3c21 ?
0.0

* * *

# Test system: HCC-2998 colon
# assay.method.text: NCI-60 one-dose screen, 48 h (100 = growth as untreated, 0 = no growth, -100 = all killed)
# cond: 10 µM unless noted
About 83,000 compounds went through this panel and 20% of them were active in at least one assay; those are over-represented in the sample as a whole.
Below, each entry is listed alongside its reported growth.
State the answer as a number, implicitly in %.

Example results:
CNCc1ccccc1CN(CC(=O)Nc1ccc2c(c1)CC1(C2)C(=O)Nc2ncccc21)C(=O)C(C)(C)C (stereo unspecified) : 113
CCOC(=O)c1ccc(NCCC(=O)O)cc1 : 103
COc1ccc(-c2nnc(SCC(=O)Nc3ccc(C(=O)/C=C/c4ccc(Cl)cc4)cc3)n2-c2ccccc2)cc1 : 103
Cc1ccc(NC(=O)c2[nH]c(SCCN(C)C)nc2-c2ccc(F)cc2)cc1C#Cc1cnc2cccnn12 : 96.3
COc1cccc(NC(=O)[C@H](C(C)C)n2c(=O)[nH]c3ccccc3c2=O)c1 : 96.3

Give measured growth for COC1CC(N)C2OC(c3ccccc3)OCC2O1 (stereo unspecified) (HCC-2998 colon).
102

Give measured growth for COc1cccc(CC(C)=C(c2ccc(OCCCN(C)C)cc2)c2ccc(OCCCN(C)C)cc2)c1 (HCC-2998 colon).
-71

Give measured growth for Nc1cccc(S(=O)(=O)c2cccc(N)c2)c1 (HCC-2998 colon).
126

Give measured growth for NC(N)=N/N=C\c1ccc(OCc2ccccc2)cc1 (HCC-2998 colon).
82.3

Give measured growth for CCOC(=O)C(Nc1ccccc1)C(=O)OCC (HCC-2998 colon).
103

Give measured growth for C#CC[C@@H]1C[C@]2(C)[C@H]3CC=C4[C@H]5[C@@H](C)[C@H](C)CC[C@]5(C(=O)NCCCCN)CC[C@@]4(C)[C@]3(C)CC[C@H]2C(C)(C)[C@H]1OC(C)=O (HCC-2998 colon).
30

* * *

# Tested on: MDA-MB-231 breast
# assay.method.text: NCI-60 one-dose screen, 48 h (100 = growth as untreated, 0 = no growth, -100 = all killed)
# cond: 10 µM unless noted
This is part of a sample that, as a whole, favours compounds with a hit. Of some 83,000 tested, about 20% had one in any assay.
property.measured: growth (%)
State the answer as a number, implicitly in %.

Example results:
Cc1ccccc1CNc1ncnc2[nH]ncc12 : 106
COc1ccc2[nH]c(C(=O)OCc3ccc4c(Br)cc(Br)c(O)c4n3)cc2c1 : -73.6
COc1cc2nccc(Oc3ccc(NC(=O)C4(C(=O)Nc5c(F)cc(F)cc5F)CC4)cc3)c2cc1Oc1ccc(N)cn1 : 65.9
Cc1cc(C)cc(CCCCCCCCCCCCCCCCCC(=O)O)c1 : 120
O=Cc1ccc2nc(C(Cl)(Cl)Cl)ccc2c1 : 108
Nc1nc(N)c2cc(Sc3ccc(Cl)cc3)ccc2n1 : 31.3

--- query ---
Read off the recorded growth for COc1cc2c(cc1C)NC(=O)/C2=C\c1c[nH]c2ccccc12
60.8

* * *

# System: T-47D breast
# assay.method.text: NCI-60 one-dose screen, 48 h (100 = growth as untreated, 0 = no growth, -100 = all killed)
# cond: 10 µM unless noted
Compounds without any hit were thinned out: in the full panel of roughly 83,000, 20% have a hit.
Kindly apply the following: y if growth is less than 50%, n in every other case.

COc1ccc(-c2n[nH]nc2-c2cc(OC)c3c(c2)OCO3)cc1 : n
CCOC(=O)C(Nc1ccccc1)C(=O)OCC : n
COc1ccc(-c2nc3ccc(Cc4ccc5nc(-c6ccc(OC)cc6)[nH]c5c4)cc3[nH]2)cc1 : y
COc1cc(C2CC(c3ccc(Cl)cc3)=NN2C=O)ccc1OS(=O)(=O)c1ccc(C)cc1 (stereo not given) : n
Cc1cc(C)c2c(n1)sc1c(Nc3ccc(Cl)cc3Cl)ncnc12 : y
COc1ccc2nc(C)cc(Nc3ccccc3O)c2c1 : y

Quick check: growth of COc1cc(C2CC(c3ccc(Nc4ccnc5cc(Cl)ccc45)cc3)=NN2c2ccccc2)cc(OC)c1OC (stereo not given) under 50%?
n

* * *

Below, each entry is listed alongside its reported growth.
# System: ACHN renal
# assay.method.text: NCI-60 one-dose screen, 48 h (100 = growth as untreated, 0 = no growth, -100 = all killed)
# cond: 10 µM unless noted
Compounds without any hit were thinned out: in the full panel of roughly 83,000, 20% have a hit.
State the answer as a number, implicitly in %.

Example results:
O=C(O)c1ccccc1N=Cc1ccccc1 : 105
COc1ccc2c(c1)CCCC21C(=O)Nc2c(Cl)cccc21 (centres undefined) : 85.1
CCCCCCCCCCCCCCCCCC1=NC(C)(C)CN1C(C)(C)CO : -75.6
COC1=CC(c2ccc[nH]2)=N/C1=C\c1[nH]c(C)c(C(=O)CCCCCCCCC(=O)O[C@H]2CC[C@H]3C4CCc5cc(O)ccc5C4CC[C@]23C)c1C (some centres undefined) : 24.3

Read off the recorded growth for O=C(C(Br)C(Br)c1ccccc1)C(Br)C(Br)c1ccccc1 (centres undefined)
-96

Read off the recorded growth for COc1ccc(C2CC(c3cccc(Nc4ccnc5cc(Cl)ccc45)c3)=NN2c2ccccc2)cc1 (centres undefined)
58.8
